Biological target: human adenosine A2a receptor (Homo sapiens)
Sequence (P29274 whole entry): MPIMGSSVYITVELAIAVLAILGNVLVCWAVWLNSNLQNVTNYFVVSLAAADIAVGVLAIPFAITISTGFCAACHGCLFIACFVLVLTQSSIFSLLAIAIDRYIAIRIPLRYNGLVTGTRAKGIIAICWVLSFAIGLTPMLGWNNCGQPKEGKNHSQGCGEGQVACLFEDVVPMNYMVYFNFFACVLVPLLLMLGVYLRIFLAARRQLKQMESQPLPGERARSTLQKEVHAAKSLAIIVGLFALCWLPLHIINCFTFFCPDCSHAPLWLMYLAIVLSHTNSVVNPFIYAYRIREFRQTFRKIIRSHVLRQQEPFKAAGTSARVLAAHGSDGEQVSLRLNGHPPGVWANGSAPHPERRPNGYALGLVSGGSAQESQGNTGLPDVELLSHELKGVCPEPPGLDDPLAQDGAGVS
Experiment: Adenosine A2a Receptor Functional Assay (A2AGAL2)
Settings: CHO-K1 cells overexpressing human A2a, cAMP inducible beta-galactosidase reporter, 15 nM NECA agonist challenge
pKi: −log10 of the molar value.
endpoint.label: pKi

Take a look at these entries with their results.
{"compound": "COc1ncccc1C(=O)c1cc2c(N)nc(-c3cccc(C#N)c3)nc2s1 [Example 39]", "measurement.target": "human adenosine A2a receptor (Homo sapiens)", "pKi": 7.28}
{"compound": "N#Cc1cccc(-c2nc(N)c3cc(C(O)c4cccnc4)sc3n2)c1 (stereo not shown) [Example 31]", "measurement.target": "human adenosine A2a receptor (Homo sapiens)", "pKi": 7.80}
{"compound": "Nc1nc(-c2cccc(F)c2)nc2sc(Cc3ccc(Cl)nc3)cc12 [Example 40]", "measurement.target": "human adenosine A2a receptor (Homo sapiens)", "pKi": 6.35}
{"compound": "N#Cc1cccc(-c2nc(N)c3cc(Cc4ccncc4Cl)sc3n2)c1 [Example 22]", "measurement.target": "human adenosine A2a receptor (Homo sapiens)", "pKi": 7.60}
{"compound": "COc1ncccc1C(O)c1cc2c(N)nc(-c3cccc(C#N)c3)nc2s1 (stereo not shown) [Example 9]", "measurement.target": "human adenosine A2a receptor (Homo sapiens)", "pKi": 8.03}

P. N#Cc1cccc(-c2nc(N)c3cc(C(O)c4cccnc4N4CCOCC4)sc3n2)c1 (stereo not shown) [Example 13]
Q. COc1ncccc1Cc1cc2c(N)nc(-c3cccc(C#N)c3)nc2s1 [Example 10]
R. COc1cccc(C(O)c2cc3c(N)nc(-c4cccc(C#N)c4)nc3s2)n1 (stereo not shown) [Example 11]
Query: Sequence the entries by pKi, beginning with the highest number. List the labels according to the requested ordering.
Reply: Q, R, P

1. N#Cc1cccc(-c2nc(N)c3cc(Cc4cccnc4Cl)sc3n2)c1 [Example 35]
2. COc1ccc(C(O)c2cc3c(N)nc(-c4cccc(C#N)c4)nc3s2)cn1 (stereo not shown) [Example 36]
Query: Which value of pKi is greater, the one for 1 or the one for 2 ? In your reply, give the label of the chosen option.
Reply: 1

---

Target: human adenosine A1 receptor (Homo sapiens)
Sequence (P30542 1-326): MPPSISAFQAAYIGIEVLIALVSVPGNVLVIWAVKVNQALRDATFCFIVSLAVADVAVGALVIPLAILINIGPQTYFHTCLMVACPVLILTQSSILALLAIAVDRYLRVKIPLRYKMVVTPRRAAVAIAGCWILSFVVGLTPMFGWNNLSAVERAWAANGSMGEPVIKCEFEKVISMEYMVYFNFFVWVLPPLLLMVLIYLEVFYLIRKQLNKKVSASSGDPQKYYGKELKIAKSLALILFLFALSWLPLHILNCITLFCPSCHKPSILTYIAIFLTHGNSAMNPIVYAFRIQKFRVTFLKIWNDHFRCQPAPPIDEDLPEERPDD
Assay: Adenosine A1 Receptor Functional Assay (A1GAL2)
Conditions: CHO-K1 cells overexpressing human A1, cAMP inducible beta-galactosidase reporter, 4 nM r-PIA/1 uM Forskolin challenge
endpoint.label: Ki (nM)

{"molecule": "N#Cc1cccc(-c2nc(N)c3cc(Cc4cccnc4N4CCCCC4)sc3n2)c1 [Example 20]", "numeric.readout": 292}

P. COc1ncccc1Cc1cc2c(N)nc(-c3cccc(C#N)c3)nc2s1 [Example 10]
Q. Nc1nc(-c2cccc(F)c2)nc2sc(Cc3ccc(Cl)nc3)cc12 [Example 40]
R. COc1ccc(C(O)c2cc3c(N)nc(-c4cccc(C#N)c4)nc3s2)cn1 (stereo not drawn) [Example 36]
S. COc1ncccc1C(O)c1cc2c(N)nc(-c3cccc(C#N)c3)nc2s1 (stereo not drawn) [Example 9]
T. N#Cc1cccc(-c2nc(N)c3cc(C(O)c4cccnc4)sc3n2)c1 (stereo not drawn) [Example 31]
Query: Sequence the entries by Ki, beginning with the highest number. List the labels according to the requested ordering.
Reply: R, Q, T, S, P

A. COc1ccc(Cc2cc3c(N)nc(-c4cccc(C#N)c4)nc3s2)cn1 [Example 37]
B. N#Cc1cccc(-c2nc(N)c3cc(C(O)c4cccnc4Cl)sc3n2)c1 (stereo not drawn) [Example 30]
Query: Which value of Ki is greater, the one for A or the one for B ? In your reply, give the label of the chosen option.
Reply: A
